Test: Bioavailability in Homo sapiens (human) at 2.5 mg, intranasal after 15 min
Assay type: ADME, organism-based
Settings: in vivo, inhaled or intranasal
Experimental Endpoint: bioavailability (%)

Given Smiles	Reported Value
O=C(CCCN1CCC(O)(c2ccc(Cl)cc2)CC1)c1ccc(F)cc1	63.8

###

Experiment: Plasma protein binding in Homo sapiens (human)
Assay type: ADME, cell-free
Conditions: read-out: PPB (converted)
Experimental Endpoint: fraction unbound

Given Smiles	Reported Value
O=C(CCCN1CCC(O)(c2ccc(Cl)cc2)CC1)c1ccc(F)cc1	0.1

###

Assay: Drug uptake in depression pateint brain at 20 mg/day after 3 days by NMR analysis
Assay type: ADME
Conditions: human, read-out: Drug uptake

Compound	concentration at 72 h / ng/mL
Fc1ccc([C@@H]2CCNC[C@H]2COc2ccc3c(c2)OCO3)cc1 [PAROXETINE]	6000

###

Assay: Bioavailability in Homo sapiens (human) at 2.5 mg, intramuscular after 15 min
Assay type: ADME, organism-based
Details: in vivo, im

Compound	bioavailability
O=C(CCCN1CCC(O)(c2ccc(Cl)cc2)CC1)c1ccc(F)cc1 [HALOPERIDOL]	48.6%
